assay: chemical genetic growth profiling, strain panel (AID 1159580);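 also: tested at 20 µM; growth read once vehicle control cultures reached saturation at 30 °C; 1 = growth at the plate median or of vehicle wells; lower values mean less growth of the strain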; conditions: S. cerevisiae deletion strains, growth OD, locus YNR052C, strain pop2
Out of some 5,500 compounds screened, about 2,000 (36%) were called active. Inconclusive results (about 18%) are left out. Rule as the data show it: active = normalized growth mostly below about 0.91 (no sharp cut-off); inconclusive = no clear call, values can overlap the other calls; inactive = mostly above about 0.92. The list shows a part of the results.
Outcome (select one): yes (1) = active, no (0) = inactive

Use the examples below as a reference point.
Prompt: How was C1CCN2CC3CC(CN4CCCCC34)C2C1 (stereo not given) classified in this test?
Response: no (0)

Prompt: Write down the call the test reported for this molecule. Item: `CCN(CC)CCNC(=O)c1cc(S(C)(=O)=O)ccc1OC`
Response: no (0)

Prompt: What did this assay record as the result for `O=C(O)CCC(=O)C(=O)O` ?
Response: no (0)

Prompt: Tell me the recorded outcome of this test for `CC(=O)Nc1ccc(S(=O)(=O)Nc2ccc([N+](=O)[O-])cc2)cc1` .
Response: no (0)

Prompt: Could you kindly confirm the outcome this assay logged for O=C1CCCC2C3CC(CN12)[C@@H]1CCCCN1C3 (stereo not given in full) ?
Response: no (0)

Prompt: GET /call?item= `O=C(O)CF` returns the recorded outcome of this test.
Response: no (0)

Prompt: Name the outcome recorded for `CC(C)(C)NC[C@@H](O)COc1nsnc1N1CCOCC1` in the assay.
Response: no (0)

Prompt: What did the test return for `COc1cc(C(=O)NCc2ccc(OCCN(C)C)cc2)cc(OC)c1OC` ?
Response: no (0)

New cases:
Prompt: Each molecule tested received a call. Report the one for CCCC1O[C@@H]2CC3C4CCC5=CC(=O)C=CC5(C)C4[C@@H](O)CC3(C)[C@]2(C(=O)CO)O1 (stereo not given in full) .
Response: no (0)

Prompt: Call for entry `Nc1ccc(S(=O)(=O)Nc2ccccn2)cc1` :
Response: no (0)

Attribution: PubChem BioAssay AID1159580
